# STUDY TARGET: ERα (Homo sapiens, UniProt P03372)
# Construct: host or cells: MCF-7
# Sequence (P03372 1-595): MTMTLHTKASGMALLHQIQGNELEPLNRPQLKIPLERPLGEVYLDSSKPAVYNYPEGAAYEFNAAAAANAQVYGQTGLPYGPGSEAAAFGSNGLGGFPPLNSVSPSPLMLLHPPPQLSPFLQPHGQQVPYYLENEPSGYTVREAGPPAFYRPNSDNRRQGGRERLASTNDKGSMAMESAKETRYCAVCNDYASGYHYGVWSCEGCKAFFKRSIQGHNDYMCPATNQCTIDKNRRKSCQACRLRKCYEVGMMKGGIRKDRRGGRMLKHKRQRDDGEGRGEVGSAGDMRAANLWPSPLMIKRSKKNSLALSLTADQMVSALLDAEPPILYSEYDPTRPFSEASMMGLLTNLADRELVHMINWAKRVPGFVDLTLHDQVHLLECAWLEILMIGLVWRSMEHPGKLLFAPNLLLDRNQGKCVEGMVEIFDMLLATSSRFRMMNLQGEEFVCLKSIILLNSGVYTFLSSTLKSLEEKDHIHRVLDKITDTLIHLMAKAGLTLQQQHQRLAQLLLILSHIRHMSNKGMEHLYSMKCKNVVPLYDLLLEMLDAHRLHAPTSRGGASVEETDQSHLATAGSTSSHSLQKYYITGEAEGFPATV
# TEST PROTOCOL: ER degradation activity in MCF-7 cells (Western blot, grayscale intensity)
# Type: cell-based
# EXPERIMENTAL PARAMETERS: 6 hours treatment, 1 nM to 100 nM, concentration required to degrade 50% of the target protein
MEASURE NAME: DC50

Cn1c(=O)n(C2CCC(=O)NC2=O)c2cccc(C#CCOC3CCN(c4ccc(C(=C5CC(C)(C)OC(C)(C)C5)c5ccc6[nH]nc(F)c6c5)cn4)CC3)c21 (stereo not drawn) ... > 100 nM

GET /values?item= CC1(C)CC(=C(c2ccc(N3CCC(N4CCN(c5ccc6c(c5)CN(C5CCC(=O)NC5=O)C6=O)CC4)CC3)cc2)c2ccc3[nH]ncc3c2)CC(C)(C)O1 (stereo not drawn) &system= ERα (Homo sapiens, UniProt P03372) returns DC50: > 100 nM

GET /values?item= CC1(C)CC(=C(c2ccc(N3CCC4(CC3)CN(C(=O)CN3Cc5cc6c(cc5C3)C(=O)N(C3CCC(=O)NC3=O)C6)C4)nc2)c2ccc3[nH]nc(F)c3c2)CC(C)(C)O1 (stereo not drawn) &system= ERα (Homo sapiens, UniProt P03372) returns DC50: 10 to 100 nM

GET /values?item= CC1(C)CC(=C(c2ccc3[nH]nc(F)c3c2)c2c(F)cc(N3CC(CN4CCN(c5ccc6c(c5)C(=O)N(C5CCC(=O)NC5=O)C6=O)CC4)C3)cc2F)CC(C)(C)O1 (stereo not drawn) &system= ERα (Homo sapiens, UniProt P03372) returns DC50: 10 to 100 nM

GET /values?item= CC1(C)CC(=C(c2ccc3[nH]nc(F)c3c2)c2c(F)cc(N3CCC(N4CCN(c5ccc6c(c5)C(=O)N(C5CCC(=O)NC5=O)C6=O)CC4)CC3)cc2F)CC(C)(C)O1 (stereo not drawn) &system= ERα (Homo sapiens, UniProt P03372) returns DC50: < 10 nM

GET /values?item= "CC1(C)CC(=C(c2ccc(N3CCC4(CC3)CC(N3CCN(c5ccc6c(c5)CN([C@@H]5CCC(=O)NC5=O)C6=O)CC3)C4)nc2)c2ccc3[nH]nc(F)c3c2)CC(C)(C)O1" &system= ERα (Homo sapiens, UniProt P03372) returns DC50: < 10 nM

GET /values?item= CC1(C)CC(=C(c2ccc(N3CCN(C(=O)C4CCN(c5ccc6c(c5)CN(C5CCC(=O)NC5=O)C6=O)CC4)CC3)nc2)c2ccc3[nH]nc(F)c3c2)CC(C)(C)O1 (stereo not drawn) &system= ERα (Homo sapiens, UniProt P03372) returns DC50: > 100 nM
